System: E. coli TESEC Alr+ wild-type control
protocol notes: growth (OD600 after 10 h); higher = more growth (less inhibition)
cond: compound 0.1 mM; raw OD600 reference: median of DMSO wells 0.49, cell-free background 0.052
Where a name gives a salt, the structure may show the parent alone.
The reader will find reported growth values listed item by item below.
Number, no unit, nothing else.

Solved cases below.
* O=C1CC[C@@]2(O)[C@H]3Cc4ccc(O)c5c4[C@@]2(CCN3CC2CC2)[C@H]1O5 [Naltrexone hydrochloride dihydrate] | 0.496
* C[C@]12CC[C@@H](O)C[C@@H]1CC[C@@H]1[C@@H]2CC[C@]2(C)C(=O)CC[C@@H]12 | 0.291
* COc1cccc(C2(O)CCCCC2CN(C)C)c1 (configuration not stated) [Tramadol hydrochloride] | 0.476
* OC(c1ccccc1)(c1ccccc1)C1CCNCC1 | 0.523

State the recorded growth for this entry: CC(O)(CS(=O)(=O)c1ccc(F)cc1)C(=O)Nc1ccc(C#N)c(C(F)(F)F)c1 (configuration not stated) [Bicalutamide] 0.378

State the recorded growth for this entry: O=C(O)CCCc1ccc(N(CCCl)CCCl)cc1 0.537

State the recorded growth for this entry: C[C@]12C/C(=C/O)C(=O)C[C@@H]1CC[C@@H]1[C@@H]2CC[C@@]2(C)[C@H]1CC[C@]2(C)O 0.462

State the recorded growth for this entry: CCCC[N+]1(C)[C@@H]2CC(OC(=O)[C@H](CO)c3ccccc3)C[C@H]1[C@@H]1O[C@@H]12 (some centres not stated) [Butylscopolammonium (n-) bromide] 0.531

State the recorded growth for this entry: CN(C)C(=O)Oc1cccc([N+](C)(C)C)c1 [Neostigmine bromide] 0.563

State the recorded growth for this entry: CNCC(O)c1ccc(O)cc1 (racemic) [(+,-)-Synephrine] 0.58

State the recorded growth for this entry: C[C@@]12N[C@@H](Cc3ccccc31)c1ccccc12 [(-)-MK 801 hydrogen maleate] 0.564

State the recorded growth for this entry: CC(CCc1ccccc1)NC(C)C(O)c1ccc(O)cc1 (configuration not stated) 0.491

State the recorded growth for this entry: C(#CCN1CCCC1)CN1CCCC1 [Tremorine dihydrochloride] 0.696

State the recorded growth for this entry: Clc1ccc(C(OCCN2CCCCC2)c2ccccc2)cc1 (configuration not stated) [Cloperastine hydrochloride] 0.413

State the recorded growth for this entry: O=C(CCCN1CCC(n2c(=O)[nH]c3ccccc32)CC1)c1ccc(F)cc1 0.407

State the recorded growth for this entry: C[C@]12CC[C@H](O)C[C@H]1CC[C@@H]1[C@@H]2C[C@@H](O)[C@]2(C)[C@@H](C3=CC(=O)OC3)CC[C@]12O 0.491

State the recorded growth for this entry: CCCCCC[C@H]1C(=O)O[C@H](C)[C@H](NC(=O)c2cccc(NC=O)c2O)C(=O)O[C@@H](C)[C@@H]1OC(=O)CC(C)C [Antimycin A] 0.428

* * *

Tested on: E. coli TESEC Alr+ wild-type control
protocol notes: growth (OD600 after 10 h); higher = more growth (less inhibition)
cond: compound 0.1 mM; raw OD600 reference: median of DMSO wells 0.49, cell-free background 0.052
Where a name gives a salt, the structure may show the parent alone.
measured metric: growth
Number, no unit, nothing else.

Solved cases below.
- O=c1[nH]c2ccccc2n1CCCN1CCC(n2c(=O)[nH]c3cc(Cl)ccc32)CC1: 0.406
- C[C@]12CC[C@H](O)C[C@H]1CC[C@@H]1[C@@H]2CC[C@]2(C)[C@@H](C3=CC(=O)OC3)CC[C@]12O: 0.439
- COc1ccc(CCN2CCC(Nc3nc4ccccc4n3Cc3ccc(F)cc3)CC2)cc1: 0.0478
- C=CCC1(CC(C)C)C(=O)NC(=O)NC1=O: 0.516
- COc1cc2c(c(OC)c1OC)-c1ccc(OC)c(=O)cc1[C@@H](NC(C)=O)CC2: 0.671

State the recorded growth for this entry: CN[C@@H]1C[C@@H](c2ccc(Cl)c(Cl)c2)c2ccccc21 [Indatraline hydrochloride] 0.0509

State the recorded growth for this entry: NCC1(CC(=O)O)CCCCC1 0.565

State the recorded growth for this entry: CN1[C@@H]2CC[C@H]1C[C@@H](OC(=O)[C@H](CO)c1ccccc1)C2 0.468

* * *

System: E. coli TESEC Mtb DapB
protocol notes: growth (OD600 after 10 h); higher = more growth (less inhibition)
cond: arabinose induction (level): High; compound 0.1 mM; raw OD600 reference: median of DMSO wells […], cell-free background 0.041
Counter-ions that a name gives are not always drawn.
The reader will find reported growth values listed item by item below.
Number, no unit, nothing else.

Solved cases below.
* CNC(=O)Oc1ccc2c(c1)[C@]1(C)CCN(C)[C@@H]1N2C [Eserine hemisulfate salt] | 0.187
* O[C@@H]1CCCC[C@H]1N1CCC(c2ccccc2)CC1 [L(-)-vesamicol hydrochloride] | 0.194
* CCC(=O)O[C@H]1CC[C@H]2[C@@H]3CCC4=CC(=O)CC[C@]4(C)[C@H]3CC[C@]12C [Testosterone propionate] | 0.214
* O=C(NCNC(=O)NC1C(=O)NC(=O)N1CO)NC1C(=O)NC(=O)N1CO (centres undefined) | 0.207
* CC(=O)O[C@H]1C[C@@H]2CC[C@@H]3[C@H](CC[C@@]4(C)[C@H]3C[C@H]([N+]3(C)CCCCC3)[C@@H]4OC(C)=O)[C@@]2(C)C[C@@H]1[N+]1(C)CCCCC1 [Pancuronium bromide] | 0.191
* CC(=O)OC1CN2CCC1CC2 (centres undefined) [Aceclidine Hydrochloride] | 0.204
* C[C@@]12N[C@@H](Cc3ccccc31)c1ccccc12 [(-)-MK 801 hydrogen maleate] | 0.213
* C[C@]12CC[C@H]3[C@@H](CCC4=CC(=O)CC[C@@H]43)[C@@H]1CC[C@@H]2O | 0.147

State the recorded growth for this entry: C[C@]12CC[C@@H](O)C[C@@H]1CC[C@@H]1[C@@H]2CC[C@]2(C)C(=O)CC[C@@H]12 0.141

* * *

Tested on: E. coli TESEC Mtb Asd
protocol notes: growth (OD600 after 10 h); higher = more growth (less inhibition)
cond: arabinose induction (level): High; compound 0.1 mM; raw OD600 reference: median of DMSO wells 0.331, cell-free background 0.041
Structures can show the parent of a compound that is named as a salt.
The reader will find reported growth values listed item by item below.
Number, no unit, nothing else.

Solved cases below.
• N[C@@H]1C[C@H]1c1ccccc1 [Tranylcypromine hydrochloride] = 0.354
• C[N+]1([O-])[C@@H]2C[C@@H](OC(=O)[C@H](CO)c3ccccc3)C[C@H]1[C@@H]1O[C@@H]12 (some centres undefined) [Scopolamin-N-oxide hydrobromide] = 0.334
• CC[C@@H](C(N)=O)N1CCCC1=O = 0.256

Consider the record given below.
State the recorded growth for this entry: CCC1(c2ccc(N)cc2)CCC(=O)NC1=O (centres undefined) [Glutethimide, para-amino] 0.393

* * *

System: E. coli TESEC Mtb Alr
protocol notes: growth (OD600 after 10 h); higher = more growth (less inhibition)
cond: arabinose 1000000 nM; compound 0.1 mM; raw OD600 reference: median of DMSO wells 0.193, cell-free background 0.041
Structures can show the parent of a compound that is named as a salt.
measured metric: growth
Number, no unit, nothing else.

- C[N+]1(C)CCCC(OC(=O)C(O)(c2ccccc2)c2ccccc2)C1 (centres undefined) [Mepenzolate bromide]: 0.179
- C[C@]12CC[C@@H](O)C[C@H]1CC[C@@H]1[C@@H]2CC[C@]2(C)C(=O)CC[C@@H]12 [3-alpha-Hydroxy-5-beta-androstan-17-one]: 0.0604
- CC[C@@]1(O)C(=O)OCc2c1cc1n(c2=O)Cc2cc3ccccc3nc2-1 [Camptothecine (S,+)]: 0.184

Consider the record given below.
State the recorded growth for this entry: C[C@]12N[C@H](Cc3ccccc31)c1ccccc12 [Dizocilpine maleate] 0.123

* * *

Test system: E. coli TESEC Mtb DapB
protocol notes: growth (OD600 after 10 h); higher = more growth (less inhibition)
cond: arabinose induction (level): High; compound 0.1 mM; raw OD600 reference: median of DMSO wells […], cell-free background 0.041
Cut-off 0.2 on growth, inclusive. At or above means Fulfilled; below means Not fulfilled.

Use these answered entries as a reference point.
* C[N+]12CCC(CC1)C(OC(=O)C(O)(c1ccccc1)c1ccccc1)C2 (stereo unspecified) [Clidinium bromide] | Not fulfilled
* C1CCc2nnnn2CC1 | Fulfilled
* COc1cc2c(cc1OC)C(C)NCC2 (stereo unspecified) | Fulfilled

Here is the next item to consider.
// inclusive: growth at least 0.2? input: CC(=O)O[C@H]1C[C@H](O[C@H]2[C@@H](O)C[C@H](O[C@H]3[C@@H](O)C[C@H](O[C@H]4CC[C@@]5(C)[C@H](CC[C@@H]6[C@@H]5C[C@@H](O)[C@]5(C)[C@@H](C7=CC(=O)OC7)CC[C@]65O)C4)O[C@@H]3C)O[C@@H]2C)O[C@H](C)[C@H]1O[C@@H]1O[C@H](CO)[C@@H](O)[C@H](O)[C@H]1O [Lanatoside C] Not fulfilled
